# EXPERIMENTAL_TARGET: T1, integrin αVβ3 (human, UniProt P06756 31-1048; P05106 27-788)
# T1 construct: mature; biotinylated in capture lift and capture ELISA; also on M21 melanoma cells in some assays; also called vitronectin receptor; αVβ3 receptor
# T1 sequence (P06756 31-1048, chain 1 of 2): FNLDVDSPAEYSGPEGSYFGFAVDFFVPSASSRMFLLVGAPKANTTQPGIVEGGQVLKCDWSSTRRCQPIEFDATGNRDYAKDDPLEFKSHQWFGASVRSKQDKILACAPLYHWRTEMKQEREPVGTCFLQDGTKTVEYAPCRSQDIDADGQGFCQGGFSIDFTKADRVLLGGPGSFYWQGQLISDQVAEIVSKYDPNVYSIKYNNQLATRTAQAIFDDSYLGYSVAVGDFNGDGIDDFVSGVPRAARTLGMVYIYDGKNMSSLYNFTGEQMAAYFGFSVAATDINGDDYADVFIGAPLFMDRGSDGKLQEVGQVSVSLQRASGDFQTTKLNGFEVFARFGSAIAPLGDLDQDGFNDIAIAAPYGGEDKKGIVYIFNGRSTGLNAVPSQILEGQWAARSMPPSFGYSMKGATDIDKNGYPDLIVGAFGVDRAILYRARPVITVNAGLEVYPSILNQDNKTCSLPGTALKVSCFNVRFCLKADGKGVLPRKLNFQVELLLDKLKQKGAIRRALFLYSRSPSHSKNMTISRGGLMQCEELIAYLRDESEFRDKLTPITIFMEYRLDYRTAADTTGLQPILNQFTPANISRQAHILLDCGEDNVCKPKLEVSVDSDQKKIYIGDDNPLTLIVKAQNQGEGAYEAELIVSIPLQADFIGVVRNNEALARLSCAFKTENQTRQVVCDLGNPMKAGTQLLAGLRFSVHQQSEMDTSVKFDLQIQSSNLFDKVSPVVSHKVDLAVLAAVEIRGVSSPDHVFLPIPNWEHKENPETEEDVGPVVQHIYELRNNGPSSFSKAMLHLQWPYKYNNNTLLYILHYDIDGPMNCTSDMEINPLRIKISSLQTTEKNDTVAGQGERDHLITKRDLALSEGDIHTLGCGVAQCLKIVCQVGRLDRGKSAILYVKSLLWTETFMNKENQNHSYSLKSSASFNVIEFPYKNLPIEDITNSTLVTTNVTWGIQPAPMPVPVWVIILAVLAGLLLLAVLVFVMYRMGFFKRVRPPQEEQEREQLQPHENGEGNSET
# T1 sequence (P05106 27-788, chain 2 of 2): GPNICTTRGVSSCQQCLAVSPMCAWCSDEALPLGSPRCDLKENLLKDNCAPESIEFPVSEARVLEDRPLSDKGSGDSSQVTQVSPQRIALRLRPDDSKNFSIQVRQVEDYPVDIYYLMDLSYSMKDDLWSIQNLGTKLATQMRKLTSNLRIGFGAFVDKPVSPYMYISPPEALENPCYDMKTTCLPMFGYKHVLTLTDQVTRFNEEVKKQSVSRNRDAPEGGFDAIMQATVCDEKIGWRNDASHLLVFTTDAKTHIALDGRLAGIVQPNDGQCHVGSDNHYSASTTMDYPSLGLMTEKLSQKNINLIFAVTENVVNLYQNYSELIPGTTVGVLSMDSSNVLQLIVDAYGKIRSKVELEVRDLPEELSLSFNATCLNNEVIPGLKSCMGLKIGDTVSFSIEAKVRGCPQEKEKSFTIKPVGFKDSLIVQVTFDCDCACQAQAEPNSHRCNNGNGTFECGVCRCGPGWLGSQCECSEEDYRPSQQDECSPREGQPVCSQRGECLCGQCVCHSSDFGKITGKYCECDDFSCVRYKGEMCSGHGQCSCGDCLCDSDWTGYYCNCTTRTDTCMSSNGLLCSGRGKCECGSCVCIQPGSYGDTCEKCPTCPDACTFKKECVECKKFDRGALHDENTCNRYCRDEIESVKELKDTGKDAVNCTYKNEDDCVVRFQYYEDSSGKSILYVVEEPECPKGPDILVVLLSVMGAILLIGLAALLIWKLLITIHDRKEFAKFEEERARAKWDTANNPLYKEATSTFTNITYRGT
# MEASUREMENT_NOTES: SPR (BIAcore)
Entries annotated with measured fold slower dissociation rate

Recorded results for 2 binders are shown here.
>  <BINDER>
LM609 grafted antibody combinatorial clone 2G4 (Fab, V domains shown, Fab) VH: QVQLVESGGGVVQPGRSLRLSCAASGFTFSSYDMSWVRQAPGKGLEWVAKVSSGGGSTYYLDTVQGRFTISRDNSKNTLYLQMNSLRAEDTAVYYCARHNYGSFASWGQGTTVTVSS VL: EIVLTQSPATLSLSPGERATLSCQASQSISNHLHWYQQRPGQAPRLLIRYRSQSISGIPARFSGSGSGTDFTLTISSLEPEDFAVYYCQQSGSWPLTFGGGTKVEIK

>  <fold slower dissociation rate>
> 10 fold

$$$$
>  <BINDER>
LM609 grafted antibody combinatorial clone C176 (Fab, V domains shown, Fab) VH: QVQLVESGGGVVQPGRSLRLSCAASGFTFSSYDMSWVRQAPGKGLEWVAKVSSGGGSTYYPDTVQGRFTISRDNSKNTLYLQMNSLRAEDTAVYYCARHNYGSFATWGQGTTVTVSS VL: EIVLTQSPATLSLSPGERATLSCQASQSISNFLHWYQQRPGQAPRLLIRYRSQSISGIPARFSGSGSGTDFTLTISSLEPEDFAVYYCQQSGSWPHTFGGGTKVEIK

>  <fold slower dissociation rate>
> 10 fold

$$$$

Kindly review the next binder as well.
Recorded fold slower dissociation rate (binder LM609 grafted antibody combinatorial clone 6D1 (Fab, V domains shown, Fab) VH: QVQLVESGGGVVQPGRSLRLSCAASGFTFSSYDMSWVRQAPGKGLEWVAKVSSGGGSTYYPDTVQGRFTISRDNSKNTLYLQMNSLRAEDTAVYYCARHNYGSFYSWGQGTTVTVSS VL: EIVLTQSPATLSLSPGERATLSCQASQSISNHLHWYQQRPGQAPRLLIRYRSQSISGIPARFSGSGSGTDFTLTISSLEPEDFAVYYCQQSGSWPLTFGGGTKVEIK ): > 10 fold
